Below, each entry is listed alongside its reported FLIPR IC50.
Biological target: T1, human GCP-2 (human, UniProt P80162 38-114, limits assumed)
T1 sequence (looked up): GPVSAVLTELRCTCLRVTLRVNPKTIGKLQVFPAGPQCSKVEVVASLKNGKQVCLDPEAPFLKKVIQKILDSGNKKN
Assay: cell-based or functional assay

The recorded FLIPR IC50 for 1L132.23 (antibody, IgG1, V domains shown) VH: QVQLQQPGAELVKPGASVKVSCKASGYTFTNYWMHWVRQRPGQGLEWIGRIHPSDNDTNYNQKFKDKATLTVDKSSNTAYMQLSSLTSEDSAVYYCAIGVYDGFIGLWGQGTSVTVSS VL: DIQMTQSPASQSASLGESVTITCLASQTIGTWLAWYQQKPGKSPQLLIYAATRLADGVPSRFSGSGSGTKFSFKISSLQAEDFVSYYCQQLSSTPWTFGGGTKLEIK is > 67 µg/mL

Noted for 1L351.17 (antibody, IgG2b, V domains shown) VH: QAYLQQSGAELVRPGASVKMSCKASGYTFTSYNMHWVKQTPRQGLEWIGAIYPGNGDTSYNQKFKGKATLTVDKSSSTAYMQLSSLTSEDSAVYFCARDLYYFDYWGQGTTLTVSS VL: ENVLTQSPAIMSAFPGEKVTMTCRASSSVSSTYLHWYQQKSGASPKLWIYSTSDLASGVPARFSGSGSGTSYSLTISSVEAEDAATYYCQQFSGYPWTFGGGTKLEIK : its FLIPR IC50 reads > 67 µg/mL

The measured FLIPR IC50 associated with 2X352.3 (antibody, IgG1, V domains shown) VH: QIQLVQSGPELKKPGETVKISCKASGYTLTYYGIHWVTQTPGKGLNWMGWINTNTGEPTYVEEFKGRFAFSLETSASTAYLQITDLKNEDTATYFCAKATYDGYSDYWGQGTTLTVSS VL: DIQMTQSPASLSVSVGESVTITCRASENIYSNLAWYQQKQGKSPQLLVYDATNLAHGVPSRFSGSGSGTQFSLRINSLQSEDFGSYYCQHFWGTPLTFGAGTRLELK reads > 67 µg/mL
